molecular target: Rac GTPase-activating protein 1 (Homo sapiens); assay: blockers of MgcRacGAP-driven Rac1 GTP hydrolysis – biochemical, ADP Hunter fluorescence, primary and confirmatory, confirmation (AID 624330); conditions: MgcRacGAP-stimulated Rac1 GTP hydrolysis, at 30 µM, stronger effect = higher value, GST-tagged Rac1 F28L mutant substrate;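 note: fluorescence reports GDP produced by GAP-driven GTP hydrolysis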
In all, about 340,000 compounds went through this assay and about 2,100 (0.62%) were called active. These entries were drawn from the full list. Measured potencies and affinities stand elsewhere.
Form field: inhibition (one value per entry).
Field: numeric (%). Do not append units.

Past entries and their recorded results:
Molecule: Cc1c(Cl)cnc(NC(=O)CSc2nnnn2C)c1Cl
inhibition (%): 3.41

Molecule: COCCNC(=O)c1ccccc1NC(=O)c1ccccc1N(C)S(=O)(=O)c1ccc(C)cc1
inhibition (%): 3.63

Molecule: CCNC(=O)CSC1=N/C(=C\c2ccc(O)c(OCC)c2)C(=O)N1c1ccc(OC(F)F)cc1
inhibition (%): 7.81

Molecule: Nc1ccccc1-n1c(=O)n(Cc2ccccc2F)c(=O)c2[nH]cnc21
inhibition (%): 3.12

Molecule: O=C(CN1CCC(NC(=O)Nc2ccccc2)CC1)Nc1ccccc1F
inhibition (%): 5.94

Lab note: CCN1CCN(C(=O)C2CCN(Cc3cc(Cl)ccc3O)CC2)CC1 gave inhibition of 12.1

Lab note: COc1ccc(C(=O)COC(=O)CNC(=O)c2ccccc2)cc1F gave inhibition of 4.02

Lab note: CC/C(=N\O)c1ccc(OC)c(OC)c1 gave inhibition of 8.04

----------
biological target: Rac GTPase-activating protein 1 (Homo sapiens); test: blockers of MgcRacGAP-driven Rac1 GTP hydrolysis – biochemical, ADP Hunter fluorescence, primary and confirmatory, confirmation (AID 624330); conditions: MgcRacGAP-stimulated Rac1 GTP hydrolysis, at 30 µM, stronger effect = higher value, GST-tagged Rac1 F28L mutant substrate;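 note: fluorescence reports GDP produced by GAP-driven GTP hydrolysis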
Among all 340,000 compounds or so, about 2,100 (0.62%) were called active. A selection follows. Entries with a potency or affinity are not part of this list.
Form field: inhibition (one value per entry).
Field: numeric (%). Do not append units.

Past entries and their recorded results:
Molecule: Fc1ccc(-c2ncc3ccccn23)cc1
inhibition / %: -4.81

Molecule: COCCNC(=O)c1cc(-c2ccccc2)nn1Cc1cc(C)no1
inhibition / %: 2.94

Now for another entry.
Short answer on Rac GTPase-activating protein 1 (Homo sapiens) for Nc1ccc(Nc2ccncc2[N+](=O)[O-])cc1 , inhibition: 8.85

----------
Form field: inhibition (one value per entry).
molecular target: Rac GTPase-activating protein 1 (Homo sapiens); test: blockers of MgcRacGAP-driven Rac1 GTP hydrolysis – biochemical, ADP Hunter fluorescence, primary and confirmatory, confirmation (AID 624330); conditions: MgcRacGAP-stimulated Rac1 GTP hydrolysis, at 30 µM, stronger effect = higher value, GST-tagged Rac1 F28L mutant substrate;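 note: fluorescence reports GDP produced by GAP-driven GTP hydrolysis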
Out of some 340,000 compounds screened, about 2,100 (0.62%) were called active. Only a sample is shown. Results with a measured potency or affinity are listed apart.
Field: numeric (%). Do not append units.

Compound: O=C1OCC2=C1C(c1ccc(F)cc1)Sc1ccccc1N2 (stereo not given)
Reported Metric: inhibition
Unit: %
Recorded Value: -0.0633

Compound: C=C1c2cccc(O)c2C(=O)C2C(=O)[C@]3(O)C(=O)C(C(N)=O)C(=O)[C@@H](N(C)C)[C@@H]3[C@@H](O)[C@H]12 (stereo not given in full)
Reported Metric: inhibition
Unit: %
Recorded Value: 73.9

Compound: CC[C@H](C)[C@@H](C(=O)N1CCNCC1)n1cc([C@@H](N)CC(C)C)nn1
Reported Metric: inhibition
Unit: %
Recorded Value: 0.32

Lab note: C[C@H]1c2cccc(O)c2C(O)=C2C(=O)C3(O)C(O)=C(C(N)=O)C(=O)[C@@H](N(C)C)[C@@H]3[C@@H](O)[C@@H]21 (stereo not given in full) gave inhibition of 1.02

Lab note: CCCC(=O)Nc1c(-c2ccccc2)c(=O)c(C)nn1-c1ccccc1 gave inhibition of -2.47
